These data points were gathered from the supplement of paper PMC11061612.

Provide the reported combination Emax of each item.
System: SU-DHL-10 (B-Cell Non-Hodgkin's Lymphoma)
Experiment: combination Emax (second highest fraction inhibited in the dose matrix, 72 h); higher = more inhibition; extreme values may be limits of the assay

Cn1cnc2c(F)c(Nc3ccc(Br)cc3Cl)c(C(=O)NOCCO)cc21 [Selumetinib] + CC(C)n1c(=O)n(C)c2cnc3cc(F)c(-c4ccc(OCCCN5CCCCC5)nc4)cc3c21 [AZD1390] (first compound max 10 µM, 7x7, partner max 0.3 µM) = 0.0401
COc1cccc(OCCCN)c1-c1cc(Nc2cnc(C#N)cn2)n[nH]1 [Prexasertib] + CN(C)CCCOc1ccc(-c2ccc3ncc4c(c3c2)n(C2CCOCC2)c(=O)n4C)cn1 [AZD0156] (first compound max 1 µM, 7x7, partner max 1 µM) = 0.999
CC(=O)c1c(C)c2cnc(Nc3ccc(N4CCNCC4)cn3)nc2n(C2CCCC2)c1=O [Palbociclib] + CN(CC[C@H](CSC1=CC=CC=C1)NC2=C(C=C(C=C2)S(=O)(=O)NC(=O)C3=CC=C(C=C3)N4CCC(CC4)[C@H](C5=CC=CC=C5C6=CC=C(C=C6)Cl)O)S(=O)(=O)C(F)(F)F)CCO [AZD4320] (first compound max 10 µM, 7x7, partner max 1 µM) = 0.995

Ask: Tell us which combination Emax value is on record for COc1cc2ncnc(Nc3ccc(F)c(Cl)c3)c2cc1OCCCN1CCOCC1 [Gefitinib] + CC(C)n1c(=O)n(C)c2cnc3cc(F)c(-c4ccc(OCCCN5CCCCC5)nc4)cc3c21 [AZD1390] (first compound max 10 µM, 7x7, partner max 0.3 µM)
Result: 0.723

---

Test system: REH (B-Lymphoblastic Leukemia)
Assay: combination Emax (second highest fraction inhibited in the dose matrix, 72 h); higher = more inhibition; extreme values may be limits of the assay
Quantity Measured: combination Emax
Give bare numbers.

Cn1cnc2c(F)c(Nc3ccc(Br)cc3Cl)c(C(=O)NOCCO)cc21 [Selumetinib] + CCN(CCO)CCCOc1ccc2c(Nc3cc(CC(=O)Nc4cccc(F)c4)[nH]n3)ncnc2c1 [AZD2811] (first compound max 10 µM, 7x7, partner max 1 µM) = 0.604
CS(=O)(=O)CCNCc1ccc(-c2ccc3ncnc(Nc4ccc(OCc5cccc(F)c5)c(Cl)c4)c3c2)o1 [Lapatinib] + C[C@@H](Oc1cc(-c2cnn(C3CCNCC3)c2)cnc1N)c1c(Cl)ccc(F)c1Cl [Crizotinib] (first compound max 10 µM, 7x7, partner max 10 µM) = 0.964
Cc1nc(-c2cn3c(n2)-c2ccc(-c4cnn(C(C)(C)C(N)=O)c4)cc2OCC3)n(C(C)C)n1 [Taselisib] + O=C(Nc1ccc2[nH]nc(-c3ccncc3)c2c1)[C@@H]1CCN(CC(=O)N2CCN(c3ccc(-c4ncccn4)cc3)CC2)C1 [SCH772984] (first compound max 10 µM, 7x7, partner max 5 µM) = 0.477
NC1(C(=O)N[C@@H](CCO)c2ccc(Cl)cc2)CCN(c2ncnc3[nH]ccc23)CC1 [Capivasertib] + CCN(CCO)CCCOc1ccc2c(Nc3cc(CC(=O)Nc4cccc(F)c4)[nH]n3)ncnc2c1 [AZD2811] (first compound max 10 µM, 7x7, partner max 1 µM) = 0.848
CCc1c2c(nc3ccc(O)cc13)-c1cc3c(c(=O)n1C2)COC(=O)[C@]3(O)CC [SN-38] + CN(C)CCCOc1ccc(-c2ccc3ncc4c(c3c2)n(C2CCOCC2)c(=O)n4C)cn1 [AZD0156] (first compound max 0.3 µM, 7x7, partner max 1 µM) = 1
COc1cccc(OCCCN)c1-c1cc(Nc2cnc(C#N)cn2)n[nH]1 [Prexasertib] + C[C@@H]1COCCN1C2=NC(=NC(=C2)C3(CC3)[S@](=N)(=O)C)C4=C5C=CNC5=NC=C4 [AZD6738] (first compound max 1 µM, 7x7, partner max 10 µM) = 1

--- query ---
Ask: Read the entry CN(C)CCCOc1ccc(-c2ccc3ncc4c(c3c2)n(C2CCOCC2)c(=O)n4C)cn1 [AZD0156] + CCN(CCO)CCCOc1ccc2c(Nc3cc(CC(=O)Nc4cccc(F)c4)[nH]n3)ncnc2c1 [AZD2811] (first compound max 1 µM, 7x7, partner max 1 µM) and write its reported combination Emax.
Result: 0.481

---

System: REH (B-Lymphoblastic Leukemia)
Test: Bliss excess, mean over the matrix (fraction); higher = more synergy
Would you kindly list Bliss excess for each of these molecules?
One number for each entry.

COc1nnc2ccc(N3CCC(c4ccc(OCCN5CCN(C)C(=O)[C@H]5C)cc4)CC3)nn12 [AZD5153] + Cc1c2c(nn1C)CSCc1cc(n(C)n1)CSc1cc(c3ccccc3c1)OCCCc1c(C(=O)O)n(C)c3c-2c(Cl)ccc13 [AZD5991] (first compound max 1 µM, 7x7, partner max 1 µM) = -0.0621
Cn1cnc2c(F)c(Nc3ccc(Br)cc3Cl)c(C(=O)NOCCO)cc21 [Selumetinib] + C=CCn1c(=O)c2cnc(Nc3ccc(N4CCN(C)CC4)cc3)nc2n1-c1cccc(C(C)(C)O)n1 [AZD1775] (first compound max 10 µM, partner max 1 µM) = -0.0424
O=C(c1cc(Cc2n[nH]c(=O)c3ccccc23)ccc1F)N1CCN(C(=O)C2CC2)CC1 [Olaparib] + CN(CC[C@H](CSC1=CC=CC=C1)NC2=C(C=C(C=C2)S(=O)(=O)NC(=O)C3=CC=C(C=C3)N4CCC(CC4)[C@H](C5=CC=CC=C5C6=CC=C(C=C6)Cl)O)S(=O)(=O)C(F)(F)F)CCO [AZD4320] (first compound max 10 µM, 7x7, partner max 1 µM) = 0.0835

Consider the record given below.
Ask: Fill in Bliss excess for record CCN(CCO)CCCOc1ccc2c(Nc3cc(CC(=O)Nc4cccc(F)c4)[nH]n3)ncnc2c1 [AZD2811] + O=C(c1cc(Cc2n[nH]c(=O)c3ccccc23)ccc1F)N1CCN(C(=O)C2CC2)CC1 [Olaparib] (first compound max 1 µM, 7x7, partner max 10 µM)
Result: 0.0285

---

System: SF539 (Glioblastoma)
Experiment: combination Emax (second highest fraction inhibited in the dose matrix, 72 h); higher = more inhibition; extreme values may be limits of the assay
Quantity Measured: combination Emax
Give bare numbers.

// worked examples, combination Emax included
N#Cc1cnc(Nc2cc(NC[C@H]3CNCCO3)c(C(F)(F)F)cn2)cn1 [SRA737] + CCc1c2c(nc3ccc(O)cc13)-c1cc3c(c(=O)n1C2)COC(=O)[C@]3(O)CC [SN-38] (first compound max 10 µM, 7x7, partner max 0.3 µM) = 0.971
C[C@@H](Oc1cc(-c2cnn(C3CCNCC3)c2)cnc1N)c1c(Cl)ccc(F)c1Cl [Crizotinib] + Cn1cnc2c(F)c(Nc3ccc(Br)cc3Cl)c(C(=O)NOCCO)cc21 [Selumetinib] (first compound max 10 µM, 7x7, partner max 10 µM) = 0.764
Cc1c2c(nn1C)CSCc1cc(n(C)n1)CSc1cc(c3ccccc3c1)OCCCc1c(C(=O)O)n(C)c3c-2c(Cl)ccc13 [AZD5991] + C=CCn1c(=O)c2cnc(Nc3ccc(N4CCN(C)CC4)cc3)nc2n1-c1cccc(C(C)(C)O)n1 [AZD1775] (first compound max 1 µM, partner max 1 µM) = 1

Here is another compound to look at.
Ask: Supply combination Emax value. Item: CN(C)CCCOc1ccc(-c2ccc3ncc4c(c3c2)n(C2CCOCC2)c(=O)n4C)cn1 [AZD0156] + CCN(CCO)CCCOc1ccc2c(Nc3cc(CC(=O)Nc4cccc(F)c4)[nH]n3)ncnc2c1 [AZD2811] (first compound max 1 µM, 7x7, partner max 1 µM)
Result: 0.394

---

Test system: SF268 (Low Grade Glioma)
Assay: Bliss excess, mean over the matrix (fraction); higher = more synergy
Quantity Measured: Bliss excess
Give bare numbers.

Cc1c2c(nn1C)CSCc1cc(n(C)n1)CSc1cc(c3ccccc3c1)OCCCc1c(C(=O)O)n(C)c3c-2c(Cl)ccc13 [AZD5991] + C[C@@H]1COCCN1C2=NC(=NC(=C2)C3(CC3)[S@](=N)(=O)C)C4=C5C=CNC5=NC=C4 [AZD6738] (first compound max 1 µM, 7x7, partner max 10 µM) = 0.0188
CC1(C)CCC(CN2CCN(c3ccc(C(=O)NS(=O)(=O)c4ccc(NCC5CCOCC5)c([N+](=O)[O-])c4)c(Oc4cnc5[nH]ccc5c4)c3)CC2)=C(c2ccc(Cl)cc2)C1 [Venetoclax] + Cn1cnc2c(F)c(Nc3ccc(Br)cc3Cl)c(C(=O)NOCCO)cc21 [Selumetinib] (first compound max 1 µM, 7x7, partner max 3 µM) = -0.0355
COc1nnc2ccc(N3CCC(c4ccc(OCCN5CCN(C)C(=O)[C@H]5C)cc4)CC3)nn12 [AZD5153] + C=CCn1c(=O)c2cnc(Nc3ccc(N4CCN(C)CC4)cc3)nc2n1-c1cccc(C(C)(C)O)n1 [AZD1775] (first compound max 1 µM, partner max 1 µM) = 0.0037
CCN(CCO)CCCOc1ccc2c(Nc3cc(CC(=O)Nc4cccc(F)c4)[nH]n3)ncnc2c1 [AZD2811] + O=C(c1cc(Cc2n[nH]c(=O)c3ccccc23)ccc1F)N1CCN(C(=O)C2CC2)CC1 [Olaparib] (first compound max 1 µM, 7x7, partner max 10 µM) = 0.0105
CCN(CCO)CCCOc1ccc2c(Nc3cc(CC(=O)Nc4cccc(F)c4)[nH]n3)ncnc2c1 [AZD2811] + C[C@@H]1COCCN1C2=NC(=NC(=C2)C3(CC3)[S@](=N)(=O)C)C4=C5C=CNC5=NC=C4 [AZD6738] (first compound max 1 µM, 7x7, partner max 10 µM) = -0.027

Quick one: give me Bliss excess for each item below, same order please.
1. CN(CCO)CC[C@H](CSc1ccccc1)Nc1ccc(S(=O)(=O)NC(=O)c2ccc(N3CCC([C@@H](O)c4ccccc4-c4ccc(Cl)cc4)CC3)cc2)cc1S(=O)(=O)C(F)(F)F [AZD4320] + CCN(CCO)CCCOc1ccc2c(Nc3cc(CC(=O)Nc4cccc(F)c4)[nH]n3)ncnc2c1 [AZD2811] (first compound max 1 µM, 7x7, partner max 1 µM)
2. CN(CCO)CC[C@H](CSc1ccccc1)Nc1ccc(S(=O)(=O)NC(=O)c2ccc(N3CCC([C@@H](O)c4ccccc4-c4ccc(Cl)cc4)CC3)cc2)cc1S(=O)(=O)C(F)(F)F [AZD4320] + Cc1cc2ncnn2cc1Nc1ncc2c(n1)n(C1CCOCC1)c(=O)n2C [AZD7648] (first compound max 1 µM, 7x7, partner max 10 µM)

Result:
1. 0.0843
2. -0.0371
